target-desc: rat liver microsomal 5α-reductase (Rattus norvegicus, UniProt P24008)
Construct: The reaction was started with the addition of liver microsomes (20 μg protein); from tissue; host or cells: liver microsomes of male Sprague–Dawley rats
Sequence (P24008 1-259): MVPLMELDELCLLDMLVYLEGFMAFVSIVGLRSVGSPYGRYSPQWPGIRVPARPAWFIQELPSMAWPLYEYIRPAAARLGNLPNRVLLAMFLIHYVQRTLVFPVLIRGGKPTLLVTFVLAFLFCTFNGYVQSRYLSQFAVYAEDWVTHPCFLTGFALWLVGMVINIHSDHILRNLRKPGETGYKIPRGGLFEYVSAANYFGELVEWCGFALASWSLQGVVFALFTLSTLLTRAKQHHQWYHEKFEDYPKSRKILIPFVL
assay-method-text: 5α-reductase assay using rat liver microsomes (testosterone metabolism, HPLC and TLC)
Assay type: biochemical
cond: test sample 10 μmol/L; testosterone 3.5 μmol/L, 30 min, rat liver microsomes 40 μg/mL, HPLC; mean ± SEM, N = 3
result-type: Inhibitory activity on 5α-reductase (% of control)

O=C(OC[C@H]1O[C@@H](OC(=O)c2cc(O)c(O)c(O)c2)[C@H](OC(=O)c2cc(O)c(O)c(O)c2)[C@@H](OC(=O)c2cc(O)c(O)c(O)c2)[C@@H]1OC(=O)c1cc(O)c(O)c(O)c1)c1cc(O)c(O)c(O)c1 [Pentagalloyl glucose, 1,2,3,4,6-penta-O-galloyl glucose]
83.5 ± 1.3 % of control

Turning now to a further record.
Reported Inhibitory activity on 5α-reductase (% of control) for O=C(O[C@@H]1Cc2c(O)cc(O)cc2O[C@@H]1c1ccc(O)c(O)c1)c1cc(O)c(O)c(O)c1 [(−)-Epicatechin gallate, (−)-epicatechin gallate] was 5.9 ± 0.3 % of control
